melting point listing for selected molecules.

O=C1NCCN1N=Cc1ccccc1 = 201 to 206 °C
CCOC(=O)Cc1c(SC)c2cc(F)ccc2n1Cc1ccc(Cl)cc1 = 118 to 119 °C
CC(=O)NC[C@H]1CN(c2ccc(N3CCC(O)(COS(C)(=O)=O)CC3)c(F)c2)C(=O)O1 = 136 to 138 °C
CNC(=O)[C@H]1O[C@@H](n2cnc3c(NCc4cc(Cl)ccc4OCC4OC(O)C(O)C(O)C4O)ncnc32)[C@H](O)[C@@H]1N (some centres undefined) = 212 to 218 °C
CCOC(=O)c1sc(NC(=O)c2ccc(C#N)cc2)nc1C = 293 to 295 °C
NC(=O)CN1CCC1=O = 112 to 113 °C

For the molecule COc1ccc(CN2C(=O)C3CC(c4ccccc4)(C3)C2=O)cc1 , what melting point is on record? 87 to 88 °C

For the molecule CCCCCC/C=C/CCCCCCCCCC(=O)Nc1nc(CC(=O)O)cs1 , what melting point is on record? 116 to 117 °C

For the molecule Cc1cc(C(O)(C(F)(F)F)C(F)(F)F)cc(C)c1NCCO , what melting point is on record? 110 to 113 °C

For the molecule COc1ccnc2c1C(=O)CC(c1ccccc1Cl)C2 (centres undefined) , what melting point is on record? 116 to 117 °C

For the molecule COc1ncccc1NC(=NC#N)NC(NC(=O)c1cccc(Cl)c1)C(C)(Cl)Cl (centres undefined) , what melting point is on record? 115 to 116 °C

For the molecule N=C(NO)c1nc2cnc3ccc(Cl)cc3c2n1-c1ccccc1Cl , what melting point is on record? 265 to 267 °C

For the molecule COc1cc(COc2ccccc2O)cc(OC)c1 , what melting point is on record? 55 to 57 °C

For the molecule COc1ccc(S(=O)(=O)C2(C(=O)NO)CCN(C)CC2)cc1 , what melting point is on record? 89 °C

From: a melting point compilation (Tetko et al.; mined from patent text by program, amines drawn as free bases though some values may be those of a salt)
